Item-by-item account of residual activity
- Experimental system: CDK6 CCND1 (human) (UniProt Q00534+P24385)
- Sequence (P24385 whole entry, looked up): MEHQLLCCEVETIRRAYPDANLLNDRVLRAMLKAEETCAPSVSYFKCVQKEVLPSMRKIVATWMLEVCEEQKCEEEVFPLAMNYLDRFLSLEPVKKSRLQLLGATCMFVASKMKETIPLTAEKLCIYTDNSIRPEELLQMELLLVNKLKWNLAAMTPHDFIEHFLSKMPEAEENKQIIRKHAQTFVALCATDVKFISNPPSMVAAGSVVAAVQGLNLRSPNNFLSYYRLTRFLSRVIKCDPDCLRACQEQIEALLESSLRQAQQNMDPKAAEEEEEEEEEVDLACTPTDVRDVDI
- Sequence (Q00534 whole entry, looked up): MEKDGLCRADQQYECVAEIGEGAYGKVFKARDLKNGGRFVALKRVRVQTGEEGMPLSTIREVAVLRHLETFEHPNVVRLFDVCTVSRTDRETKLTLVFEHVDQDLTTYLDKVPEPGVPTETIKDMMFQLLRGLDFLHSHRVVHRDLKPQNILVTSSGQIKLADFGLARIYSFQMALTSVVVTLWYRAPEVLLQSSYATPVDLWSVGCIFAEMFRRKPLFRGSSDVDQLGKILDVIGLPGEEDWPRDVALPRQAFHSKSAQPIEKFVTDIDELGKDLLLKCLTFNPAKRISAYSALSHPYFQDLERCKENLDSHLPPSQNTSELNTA
- Test: radiometric filter-binding kinase assay, Kinase HotSpot
- Condition: compound 0.5 µM; ATP 10 µM
Assay metric: residual activity (%)

Compound: Nc1nc(Nc2ccc(S(N)(=O)=O)cc2)nn1C(=S)Nc1c(F)cccc1F
Assay metric: residual activity
Unit label: %
Recorded measurement: 2.89
--
Compound: C#Cc1cccc(Nc2ncnc3cc(OCCOC)c(OCCOC)cc23)c1
Assay metric: residual activity
Unit label: %
Recorded measurement: 98.7
--
Compound: O=C(Nc1ccc(Cl)cc1)c1ccccc1NCc1ccncc1
Assay metric: residual activity
Unit label: %
Recorded measurement: 93.4
--
Compound: Nc1nc(Nc2ccc(S(N)(=O)=O)cc2)nn1C(=O)c1c(F)cccc1F
Assay metric: residual activity
Unit label: %
Recorded measurement: 17.1
--
Compound: CS(=O)c1ccc(-c2nc(-c3ccc(F)cc3)c(-c3ccncc3)[nH]2)cc1 (stereo not given)
Assay metric: residual activity
Unit label: %
Recorded measurement: 100

====

- Experimental system: PRKCD (human) (UniProt Q05655)
- Sequence (Q05655 whole entry, looked up): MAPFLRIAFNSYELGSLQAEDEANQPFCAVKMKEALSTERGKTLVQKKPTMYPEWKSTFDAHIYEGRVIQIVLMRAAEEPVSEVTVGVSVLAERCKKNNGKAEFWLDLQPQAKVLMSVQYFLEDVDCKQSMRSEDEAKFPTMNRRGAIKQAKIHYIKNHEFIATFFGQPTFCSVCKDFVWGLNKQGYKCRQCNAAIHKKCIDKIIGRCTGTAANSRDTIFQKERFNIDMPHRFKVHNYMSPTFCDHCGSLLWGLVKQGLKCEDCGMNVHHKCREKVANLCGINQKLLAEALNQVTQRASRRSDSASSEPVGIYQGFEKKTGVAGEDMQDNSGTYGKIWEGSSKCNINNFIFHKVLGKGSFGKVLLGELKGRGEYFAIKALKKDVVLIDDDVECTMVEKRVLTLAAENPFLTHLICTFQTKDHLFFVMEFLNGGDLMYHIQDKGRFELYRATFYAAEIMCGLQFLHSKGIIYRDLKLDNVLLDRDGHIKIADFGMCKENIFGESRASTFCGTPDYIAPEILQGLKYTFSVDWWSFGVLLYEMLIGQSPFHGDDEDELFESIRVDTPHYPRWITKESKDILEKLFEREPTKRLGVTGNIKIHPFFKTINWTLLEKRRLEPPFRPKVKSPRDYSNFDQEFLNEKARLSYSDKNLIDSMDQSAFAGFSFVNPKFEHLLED
- Test: radiometric filter-binding kinase assay, Kinase HotSpot
- Condition: compound 0.5 µM; ATP 10 µM

Molecule: COc1cc2nccc(Oc3ccc(NC(=S)NC(=O)c4ccccc4C)cc3)c2cc1OC
Experimental system: PRKCD (human) (UniProt Q05655)
residual activity / %: 90.4

Molecule: NC(=O)c1ccc(N(C(N)=O)c2c(F)cccc2F)nc1-c1ccc(F)cc1F
Experimental system: PRKCD (human) (UniProt Q05655)
residual activity / %: 104

Molecule: Cc1ccc(NC(=O)c2ccc(CN3CCN(C)CC3)cc2)cc1Nc1nc(-c2cccnc2)cs1
Experimental system: PRKCD (human) (UniProt Q05655)
residual activity / %: 97.9

Molecule: O=c1cc(-c2cccc3c2Sc2ccccc2S3)oc(N2CCOCC2)c1
Experimental system: PRKCD (human) (UniProt Q05655)
residual activity / %: 91.9

Molecule: O=c1cc(N2CCNCC2)oc2c(-c3ccccc3)cccc12
Experimental system: PRKCD (human) (UniProt Q05655)
residual activity / %: 99.6

Molecule: CC(C)(C)c1nc2c3ccc(F)cc3c3c(=O)[nH]ccc3c2[nH]1
Experimental system: PRKCD (human) (UniProt Q05655)
residual activity / %: 43.6

Molecule: CC(C)n1cnc2c(Nc3cccc(Cl)c3)nc(NCCO)nc21
Experimental system: PRKCD (human) (UniProt Q05655)
residual activity / %: 89.1

Molecule: C#Cc1cccc(Nc2ncnc3cc(OCCOC)c(OCCOC)cc23)c1
Experimental system: PRKCD (human) (UniProt Q05655)
residual activity / %: 104

Molecule: O=C1Cc2c([nH]c3ccc([N+](=O)[O-])cc23)-c2ccccc2N1
Experimental system: PRKCD (human) (UniProt Q05655)
residual activity / %: 79.8

Molecule: Oc1ccc(-c2nc(-c3ccc(F)cc3)c(-c3ccncc3)[nH]2)cc1
Experimental system: PRKCD (human) (UniProt Q05655)
residual activity / %: 99.3

Molecule: O=C1Nc2ccccc2/C1=C\c1c(Cl)[nH]c2ccccc12
Experimental system: PRKCD (human) (UniProt Q05655)
residual activity / %: 88.4

Molecule: Nc1n[nH]c2nnc(-c3c(-c4ccccc4)nn4ccccc34)cc12
Experimental system: PRKCD (human) (UniProt Q05655)
residual activity / %: 31.2

Molecule: Nc1nc(Nc2ccc(S(N)(=O)=O)cc2)nn1C(=O)c1c(F)cccc1F
Experimental system: PRKCD (human) (UniProt Q05655)
residual activity / %: 81.2

Molecule: CC(C)[C@H](CO)Nc1nc(Nc2cccc(Cl)c2)c2ncn(C(C)C)c2n1
Experimental system: PRKCD (human) (UniProt Q05655)
residual activity / %: 104

Molecule: O=C(NC(NC(=S)Nc1ccc(F)c([N+](=O)[O-])c1)C(Cl)(Cl)Cl)C(c1ccccc1)c1ccccc1 (stereo not drawn)
Experimental system: PRKCD (human) (UniProt Q05655)
residual activity / %: 91.2

Molecule: CCCNC(=O)Nc1ccc(Oc2ncnc3cc(OC)c(OC)cc23)cc1Cl
Experimental system: PRKCD (human) (UniProt Q05655)
residual activity / %: 90.1

Molecule: COc1ccc(-c2cnc3c(-c4ccsc4)cnn3c2)cc1
Experimental system: PRKCD (human) (UniProt Q05655)
residual activity / %: 98.9

Molecule: CS(=O)c1ccc(-c2nc(-c3ccc(F)cc3)c(-c3ccncc3)[nH]2)cc1 (stereo not drawn)
Experimental system: PRKCD (human) (UniProt Q05655)
residual activity / %: 107

====

- Experimental system: FGFR4 (human) (UniProt P22455)
- Sequence (P22455 whole entry, looked up): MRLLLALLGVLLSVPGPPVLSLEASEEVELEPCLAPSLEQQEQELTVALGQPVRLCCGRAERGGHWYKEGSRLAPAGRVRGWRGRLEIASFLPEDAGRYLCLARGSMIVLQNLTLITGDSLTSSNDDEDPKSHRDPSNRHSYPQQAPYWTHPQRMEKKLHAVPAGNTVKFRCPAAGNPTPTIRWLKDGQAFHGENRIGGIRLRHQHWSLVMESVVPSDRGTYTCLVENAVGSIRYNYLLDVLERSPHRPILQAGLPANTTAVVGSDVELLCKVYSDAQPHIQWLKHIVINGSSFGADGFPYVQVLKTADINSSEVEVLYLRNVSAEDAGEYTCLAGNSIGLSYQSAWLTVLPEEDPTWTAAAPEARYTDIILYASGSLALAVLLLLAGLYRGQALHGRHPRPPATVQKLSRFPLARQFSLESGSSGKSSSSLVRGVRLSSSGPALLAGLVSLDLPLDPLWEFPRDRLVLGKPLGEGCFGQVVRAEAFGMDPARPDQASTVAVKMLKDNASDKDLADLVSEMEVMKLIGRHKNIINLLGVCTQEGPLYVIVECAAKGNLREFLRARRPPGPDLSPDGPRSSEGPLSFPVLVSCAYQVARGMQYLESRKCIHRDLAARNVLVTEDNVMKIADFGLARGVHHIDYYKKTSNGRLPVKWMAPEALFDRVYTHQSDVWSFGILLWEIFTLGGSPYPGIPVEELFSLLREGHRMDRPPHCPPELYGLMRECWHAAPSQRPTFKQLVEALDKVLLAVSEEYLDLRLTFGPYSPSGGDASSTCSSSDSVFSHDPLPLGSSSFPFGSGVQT
- Test: radiometric filter-binding kinase assay, Kinase HotSpot
- Condition: compound 0.5 µM; ATP 10 µM
Item-by-item account of residual activity

Chem smiles: Nc1nc(Nc2ccc(S(N)(=O)=O)cc2)nn1C(=O)c1c(F)cccc1F
residual activity, %: 90.3
//
Chem smiles: CCN1/C(=C/C(C)=O)Sc2ccc(OC)cc21
residual activity, %: 92.3
//
Chem smiles: Cc1ccc(NC(=O)c2ccc(CN3CCN(C)CC3)cc2)cc1Nc1nc(-c2cccnc2)cs1
residual activity, %: 89.8
//
Chem smiles: COc1cc2ncnc(Nc3ccc(F)c(Cl)c3)c2cc1OCCCN1CCOCC1
residual activity, %: 92.4

====

- Experimental system: HIPK1 (human) (UniProt Q86Z02)
- Sequence (Q86Z02 whole entry, looked up): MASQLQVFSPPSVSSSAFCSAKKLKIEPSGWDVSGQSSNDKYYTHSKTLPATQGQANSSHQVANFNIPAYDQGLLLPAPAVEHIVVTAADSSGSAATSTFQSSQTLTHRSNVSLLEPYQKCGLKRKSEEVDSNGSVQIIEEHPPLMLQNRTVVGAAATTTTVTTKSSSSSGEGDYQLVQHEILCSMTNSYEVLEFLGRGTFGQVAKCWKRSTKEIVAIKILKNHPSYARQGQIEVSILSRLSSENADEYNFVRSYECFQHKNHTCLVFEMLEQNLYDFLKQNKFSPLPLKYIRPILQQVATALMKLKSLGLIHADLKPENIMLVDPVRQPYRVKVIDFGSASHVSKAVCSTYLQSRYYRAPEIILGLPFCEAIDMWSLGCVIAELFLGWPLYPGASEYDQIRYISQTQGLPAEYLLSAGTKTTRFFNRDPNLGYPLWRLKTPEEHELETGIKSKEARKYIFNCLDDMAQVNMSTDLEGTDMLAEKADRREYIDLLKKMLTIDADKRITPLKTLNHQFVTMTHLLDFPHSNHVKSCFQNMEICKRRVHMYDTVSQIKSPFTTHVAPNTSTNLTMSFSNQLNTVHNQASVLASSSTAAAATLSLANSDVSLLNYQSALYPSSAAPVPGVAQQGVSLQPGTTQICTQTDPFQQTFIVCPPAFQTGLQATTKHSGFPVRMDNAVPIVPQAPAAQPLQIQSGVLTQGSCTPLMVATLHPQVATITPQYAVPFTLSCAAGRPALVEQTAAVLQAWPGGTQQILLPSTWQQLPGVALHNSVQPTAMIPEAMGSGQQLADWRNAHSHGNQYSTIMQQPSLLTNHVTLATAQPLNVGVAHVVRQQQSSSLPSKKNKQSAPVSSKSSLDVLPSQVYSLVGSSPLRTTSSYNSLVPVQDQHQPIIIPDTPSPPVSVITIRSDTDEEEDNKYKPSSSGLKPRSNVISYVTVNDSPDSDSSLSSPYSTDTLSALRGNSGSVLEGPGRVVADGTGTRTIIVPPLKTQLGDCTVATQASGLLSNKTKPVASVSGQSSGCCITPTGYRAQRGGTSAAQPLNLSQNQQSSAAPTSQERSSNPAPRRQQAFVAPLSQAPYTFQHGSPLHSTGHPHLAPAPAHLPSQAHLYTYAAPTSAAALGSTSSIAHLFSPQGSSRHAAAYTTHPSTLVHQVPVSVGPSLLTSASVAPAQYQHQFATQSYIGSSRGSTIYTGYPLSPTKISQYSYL
- Test: radiometric filter-binding kinase assay, Kinase HotSpot
- Condition: compound 0.5 µM; ATP 10 µM
Item-by-item account of residual activity

Compound: CS(=O)c1ccc(-c2nc(-c3ccc(F)cc3)c(-c3ccncc3)[nH]2)cc1 (centres undefined)
Unit label: %
residual activity: 104
//
Compound: Oc1ccc(-c2nc(-c3ccc(F)cc3)c(-c3ccncc3)[nH]2)cc1
Unit label: %
residual activity: 98.2
//
Compound: O=c1cc(-c2cccc3c2Sc2ccccc2S3)oc(N2CCOCC2)c1
Unit label: %
residual activity: 99.6
//
Compound: O=c1cc(N2CCNCC2)oc2c(-c3ccccc3)cccc12
Unit label: %
residual activity: 110
//
Compound: Cc1ccc(NC(=O)c2ccc(CN3CCN(C)CC3)cc2)cc1Nc1nc(-c2cccnc2)cs1
Unit label: %
residual activity: 97.4
//
Compound: O=C1Nc2cc(Br)ccc2/C1=C1/Nc2ccccc2/C1=N\O
Unit label: %
residual activity: 103
//
Compound: Clc1ccc(Nc2nnc(Cc3ccncc3)c3ccccc23)cc1
Unit label: %
residual activity: 99.2
//
Compound: CCN1/C(=C/C(C)=O)Sc2ccc(OC)cc21
Unit label: %
residual activity: 95
//
Compound: Cc1cc2ncc(-c3ccccc3)nc2cc1C
Unit label: %
residual activity: 105
//
Compound: NC(=O)c1ccc(N(C(N)=O)c2c(F)cccc2F)nc1-c1ccc(F)cc1F
Unit label: %
residual activity: 100
//
Compound: O=C1Nc2ccccc2/C1=C\c1c(Cl)[nH]c2ccccc12
Unit label: %
residual activity: 100
//
Compound: O=C(Nc1ccc(Cl)cc1)c1ccccc1NCc1ccncc1
Unit label: %
residual activity: 92.7
//
Compound: O=C(NC(NC(=S)Nc1ccc(F)c([N+](=O)[O-])c1)C(Cl)(Cl)Cl)C(c1ccccc1)c1ccccc1 (centres undefined)
Unit label: %
residual activity: 108
//
Compound: Nc1nc(Nc2ccc(S(N)(=O)=O)cc2)nn1C(=S)Nc1c(F)cccc1F
Unit label: %
residual activity: 105

====

- Experimental system: MAP4K2 (human)
- Test: radiometric filter-binding kinase assay, Kinase HotSpot
- Condition: compound 0.5 µM; ATP 10 µM

Compound: NC(=O)c1ccc(N(C(N)=O)c2c(F)cccc2F)nc1-c1ccc(F)cc1F
residual activity: 108%

Compound: Cc1cc2ncc(-c3ccccc3)nc2cc1C
residual activity: 113%

Compound: CC(C)(C)c1nc2c3ccc(F)cc3c3c(=O)[nH]ccc3c2[nH]1
residual activity: 66.2%

Compound: O=C(Nc1ccc(Cl)cc1)c1ccccc1NCc1ccncc1
residual activity: 97.3%

Compound: Cc1ccc(NC(=O)c2ccc(CN3CCN(C)CC3)cc2)cc1Nc1nc(-c2cccnc2)cs1
residual activity: 103%

Compound: CC(C)n1cnc2c(Nc3cccc(Cl)c3)nc(NCCO)nc21
residual activity: 87.6%

Compound: CS(=O)c1ccc(-c2nc(-c3ccc(F)cc3)c(-c3ccncc3)[nH]2)cc1 (stereo unspecified)
residual activity: 106%

Compound: O=c1cc(N2CCNCC2)oc2c(-c3ccccc3)cccc12
residual activity: 87.6%

Compound: O=C1Cc2c([nH]c3ccc([N+](=O)[O-])cc23)-c2ccccc2N1
residual activity: 8.77%

Compound: COc1ccc(-c2cnc3c(-c4ccsc4)cnn3c2)cc1
residual activity: 74.8%

Compound: Nc1n[nH]c2nnc(-c3c(-c4ccccc4)nn4ccccc34)cc12
residual activity: 98.6%
